Please respond with reported selectivity ratio for every item in the list.
# Test system: CYP2A6 over CYP2D6
# Run description: Selectivity for CYP2A6 over CYP2D6
# Run parameters: human
Answers are plain numbers.

c1cncc(-c2ccc(C3SCCS3)o2)c1 : 2.8

# next compound below
In plain terms, CNCc1ccc(-c2cccnc2)o1 has a documented selectivity ratio of 57

====

Please respond with reported selectivity ratio for every item in the list.
# Tested on: CYP2A6 over CYP2C19
# Run description: Selectivity for CYP2A6 over CYP2C19
# Run parameters: human
Give bare numbers.

For orientation, consider the following solved cases.
CN(C)Cc1ccc(-c2cccnc2)s1 : 0.8
CNCc1ccc(-c2cccnc2)o1 : 19
NCc1ccc(-c2ccccc2)o1 : 6.8

Sample NCc1cc(-c2cccnc2)no1 , system: CYP2A6 over CYP2C19. Its selectivity ratio is 74.3

====

Consider compounds characterized by their pKi with Cytochrome P450 2E1 (Homo sapiens, UniProt P05181).
Sequence (P05181 whole entry): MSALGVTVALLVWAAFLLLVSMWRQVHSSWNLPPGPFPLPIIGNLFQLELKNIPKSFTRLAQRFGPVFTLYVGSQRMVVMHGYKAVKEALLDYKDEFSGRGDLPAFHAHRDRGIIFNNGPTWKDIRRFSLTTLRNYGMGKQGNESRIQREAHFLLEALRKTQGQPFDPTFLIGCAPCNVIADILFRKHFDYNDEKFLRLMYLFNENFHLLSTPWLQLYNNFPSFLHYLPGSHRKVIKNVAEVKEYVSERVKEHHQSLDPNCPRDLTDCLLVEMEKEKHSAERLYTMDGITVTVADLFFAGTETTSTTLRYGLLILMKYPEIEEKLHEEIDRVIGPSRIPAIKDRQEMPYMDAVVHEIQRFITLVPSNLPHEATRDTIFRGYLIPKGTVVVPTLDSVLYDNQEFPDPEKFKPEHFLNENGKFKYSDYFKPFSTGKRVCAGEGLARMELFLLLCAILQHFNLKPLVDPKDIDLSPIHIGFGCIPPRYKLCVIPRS
One number for each entry, as −log10 of the molar value.

Can you give me pKi for all of these, one by one?
1. Cc1csc(-c2cccnc2)n1
2. NCc1ccc(-c2cccnc2)o1
3. NCc1ccc(-c2ccccc2)o1
4. CSCc1ccc(-c2cccnc2)o1
5. NCc1ccc(-c2ccccc2)s1
6. CNCC#Cc1cccnc1

**Result**
1. 5.02
2. 4.07
3. 6.10
4. 6.10
5. 7.40
6. 3.93

Can you give me pKi for all of these, one by one?
1. c1cncc(-c2c[nH]cn2)c1
2. Cn1cnc(-c2cccnc2)c1

**Result**
1: 4.89; 2: 5.70

Can you give me pKi for all of these, one by one?
1. c1cncc(-c2ccc(C3SCCS3)o2)c1
2. CC(=O)SCc1ccc(-c2cccnc2)o1

**Result**
1. 6.22
2. 6.70

====

# Test system: CYP2A6 over CYP2C19
# Run description: Selectivity for CYP2A6 over CYP2C19
# Run parameters: human
Please respond with reported selectivity ratio for every item in the list.

For orientation, consider the following solved cases.
Cc1csc(-c2cccnc2)n1 : > 32.3
CN(C)CC#Cc1cccnc1 : > 3
Cc1ccsc1-c1ccc(F)nc1 : 32
SCc1ccc(-c2cccnc2)o1 : < 0.3
c1cncc(-c2c[nH]cn2)c1 : 35

Can you give me selectivity ratio for all of these, one by one?
1. NCc1cc(-c2cccnc2)n[nH]1
2. NCc1ccc(-c2cccnc2)o1
3. c1cncc(-c2cc[nH]n2)c1
4. c1cncc(-c2ccsc2)c1
5. NCCCc1cccnc1
6. c1cncc(-c2ccc(C3SCCS3)o2)c1

**Result**
143
81
8.5
81
> 30
0.1

====

# System: CYP2A6 over CYP2C9
# Run description: Selectivity for CYP2A6 over CYP2C9
# Run parameters: human
Please respond with reported selectivity ratio for every item in the list.
Give bare numbers.

For orientation, consider the following solved cases.
CSCc1ccc(-c2cccnc2)o1 : 18
CC(=O)SCc1ccc(-c2cccnc2)o1 : 3.4
CN(C)Cc1ccc(-c2cccnc2)s1 : 1.5

# next molecule below
Sample NCc1cc(-c2cccnc2)no1 , system: CYP2A6 over CYP2C9. Its selectivity ratio is 39.1

====

# Test system: Cytochrome P450 2C9 (Homo sapiens, UniProt P11712)
# Sequence (P11712 whole entry): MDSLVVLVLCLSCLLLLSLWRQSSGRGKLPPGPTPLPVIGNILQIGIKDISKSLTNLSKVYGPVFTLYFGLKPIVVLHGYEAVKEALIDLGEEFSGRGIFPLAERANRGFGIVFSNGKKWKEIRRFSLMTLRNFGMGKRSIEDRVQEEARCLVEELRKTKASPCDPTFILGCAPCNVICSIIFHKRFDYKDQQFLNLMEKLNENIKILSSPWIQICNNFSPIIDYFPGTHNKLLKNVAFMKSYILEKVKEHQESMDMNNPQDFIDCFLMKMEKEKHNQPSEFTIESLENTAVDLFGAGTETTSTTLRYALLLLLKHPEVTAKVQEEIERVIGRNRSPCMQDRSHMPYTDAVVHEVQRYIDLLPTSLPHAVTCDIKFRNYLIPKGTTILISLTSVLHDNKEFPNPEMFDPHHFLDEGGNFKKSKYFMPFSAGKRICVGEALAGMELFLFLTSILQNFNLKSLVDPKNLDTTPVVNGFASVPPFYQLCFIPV
pKi: −log10 of the molar value.
Rule: Met for pKi not less than 4, Not met for anything less.

Answered examples (3):
NCCCc1cccnc1 : Not met
Cc1csc(-c2cccnc2)n1 : Met
NCc1ccc(-c2cccnc2)o1 : Met

**Query** hey, is pKi for this one >= 4? CN(C)CC#Cc1cccnc1
**Result** Not met

**Query** hey, is pKi for this one >= 4? c1cncc(-c2ccsc2)c1
**Result** Met

**Query** hey, is pKi for this one >= 4? c1cncc(-c2c[nH]cn2)c1
**Result** Met

**Query** hey, is pKi for this one >= 4? NCc1cc(-c2cccnc2)no1
**Result** Met

**Query** hey, is pKi for this one >= 4? CNCC#Cc1cccnc1
**Result** Met

**Query** hey, is pKi for this one >= 4? c1cncc(-c2cc[nH]n2)c1
**Result** Not met

**Query** hey, is pKi for this one >= 4? Cn1cnc(-c2cccnc2)c1
**Result** Met

This collection of values is drawn from ChEMBL document CHEMBL1137358.
